biological target: BTK (Homo sapiens (Human)); assay: Btk kinase assay (HTRF); assay type: biochemical; details: [ATP]=80 μM, BTK=3.4 nM; read-out: BTK Inhibition
Sequence (Q06187 whole entry, species assumed): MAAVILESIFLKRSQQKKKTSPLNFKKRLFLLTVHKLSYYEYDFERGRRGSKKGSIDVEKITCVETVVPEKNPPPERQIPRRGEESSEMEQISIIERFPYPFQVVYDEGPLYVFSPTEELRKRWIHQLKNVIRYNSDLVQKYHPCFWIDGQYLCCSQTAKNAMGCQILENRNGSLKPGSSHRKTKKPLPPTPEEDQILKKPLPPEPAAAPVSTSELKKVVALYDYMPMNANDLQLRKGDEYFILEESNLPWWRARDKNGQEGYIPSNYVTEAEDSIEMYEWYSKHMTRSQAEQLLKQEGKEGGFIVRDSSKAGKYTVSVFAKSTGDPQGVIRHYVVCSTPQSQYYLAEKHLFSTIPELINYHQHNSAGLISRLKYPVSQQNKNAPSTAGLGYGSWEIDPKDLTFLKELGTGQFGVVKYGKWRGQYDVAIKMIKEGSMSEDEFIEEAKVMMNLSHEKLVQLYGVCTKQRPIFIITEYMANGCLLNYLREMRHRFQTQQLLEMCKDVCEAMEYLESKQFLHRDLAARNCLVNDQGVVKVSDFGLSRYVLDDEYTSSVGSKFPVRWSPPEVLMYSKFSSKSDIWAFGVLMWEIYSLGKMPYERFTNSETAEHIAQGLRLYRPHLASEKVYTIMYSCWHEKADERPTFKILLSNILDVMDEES
pIC50: −log10 of the molar value.
readout name: pIC50

Sample records with pIC50:
# compound smiles, target system, pIC50
measured = [
    ("C=CC(=O)Nc1cccc(-n2c(=O)n(-c3ccc(Oc4cccc(C(C)C)c4)cc3)c3cnccc32)c1", "BTK (Homo sapiens (Human))", "7.00 to 8.00"),
    ("C=CC(=O)N1CCC[C@@H](n2c(=O)n(-c3ccc(Oc4ccccc4)cc3)c3cnccc32)C1", "BTK (Homo sapiens (Human))", "7.00 to 8.00"),
    ("C=CC(=O)N1CC[C@@H](n2c(=O)n(-c3ccc(Oc4cccc(OC)c4)c(Cl)c3)c3cnccc32)C1", "BTK (Homo sapiens (Human))", "7.00 to 8.00"),
]

*Q* Bench note: what pIC50 did C=CC(=O)N1CC[C@@H](n2c(=O)n(-c3ccc(OCc4ccc(F)c(F)c4)cc3)c3cnccc32)C1 show?
*A* 5.00 to 6.00

*Q* Please do the same for C=CC(=O)Nc1cccc(-n2c(=O)n(-c3ccc(C(=O)Nc4cccc(C)c4)cc3)c3cnccc32)c1 as well.
*A* 5.00 to 6.00

*Q* Please do the same for C=CC(=O)N1CC[C@@H](n2c(=O)n(-c3ccc(Oc4cccc(C)c4)cc3)c3cnccc32)C1 as well.
*A* ≥ 8.00
